The entries below come with measured pKd values attached.
Target: T1, extracellular domain of human BCMA (human, UniProt Q02223 1-54)
T1 construct: amine-linked to Octet AR2G tips; also called hsBCMA; BCMA (human)
T1 sequence: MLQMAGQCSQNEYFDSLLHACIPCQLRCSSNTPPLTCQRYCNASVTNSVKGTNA
Test: Octet BLI; Fab 200 nM
Please report pKd as the negative decimal logarithm of the molar concentration, giving only the number.

Worked set:
binder	pKd
AB200-(2Vk30)_R2-VH-v74 (Fab, V domains shown) VH: QVQLVQSGAEVKKPGSSVKVSCKASGGTFSNYWIHWVRQAPGQGLEWMGATYRIHSDTYYAEKFKSRVTITADKSTSTAYMELSSLRSEDTAVYYCARGAIYHGFDVIDNWGQGTLVTVSS VL: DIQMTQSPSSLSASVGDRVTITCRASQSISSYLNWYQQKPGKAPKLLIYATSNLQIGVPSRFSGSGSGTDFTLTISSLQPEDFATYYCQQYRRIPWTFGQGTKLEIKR	8.66
AB200-(2Vk30)_R2-VH-v19 (Fab, V domains shown) VH: QVQLVQSGAEVKKPGSSVKVSCKASGGTFSNYWIHWVRQAPGQGLEWMGGTYRSHSTTYYNQKFKSRVTITADKSTSTAYMELSSLRSEDTAVYYCARGAIYHGFDVIDNWGQGTLVTVSS VL: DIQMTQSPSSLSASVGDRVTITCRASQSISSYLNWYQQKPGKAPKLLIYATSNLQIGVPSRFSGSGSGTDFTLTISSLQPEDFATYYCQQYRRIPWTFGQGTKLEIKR	7.84
AB200-(2Vk30)_R2-VH-v10 (Fab, V domains shown) VH: QVQLVQSGAEVKKPGSSVKVSCKASGGTYSNYWIHWVRQAPGQGLEWMGATYRSHSDTNYNQKYKSRVTITADKSTSTAYMELSSLRSEDTAVYYCARGAIYHGYDVIENWGQGTLVTVSS VL: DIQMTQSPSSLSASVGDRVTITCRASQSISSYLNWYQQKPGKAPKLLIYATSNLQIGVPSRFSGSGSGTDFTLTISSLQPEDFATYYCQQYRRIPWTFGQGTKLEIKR	7.07
AB200-(2Vk30)_R2-VH-v13 (Fab, V domains shown) VH: QVQLVQSGAEVKKPGSSVKVSCKASGGSFSNYWIHWVRQAPGQGLEWMGGTYRSHSDTYYAQKFKSRVTITADKSTSTAYMELSSLRSEDTAVYYCARGAIYHGYDVIENWGQGTLVTVSS VL: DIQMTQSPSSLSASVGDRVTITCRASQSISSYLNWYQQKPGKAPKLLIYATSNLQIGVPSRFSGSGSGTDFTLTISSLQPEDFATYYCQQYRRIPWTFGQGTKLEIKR	7.35

Using the record for AB200-(2Vk30)_R2-VH-v51 (Fab, V domains shown) VH: QVQLVQSGAEVKKPGSSVKVSCKASGGSFSNYWIHWVRQAPGQGLEWMGGTYRIQSDTYYNQKFKSRVTITADKSTSTAYMELSSLRSEDTAVYYCARGAIYHGYDVIENWGQGTLVTVSS VL: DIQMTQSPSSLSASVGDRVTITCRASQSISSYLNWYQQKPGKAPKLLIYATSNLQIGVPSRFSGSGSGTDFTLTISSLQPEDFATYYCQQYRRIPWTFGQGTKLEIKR , report its pKd. 7.69

Cited source for all entries: patent US20240327535A1
